Task for the reader: assign each of the following molecules its reported Population Tubulin-Different-Phenotype (%).
Tested on: U2OS
Assay: Multiplex assay against U2OS
Format: toxicity, cell-based
Details: human, 12 h, 1 µM, compound concentration 1 uM, replicate 2
Please make sure the unit comes right after the number.

Observe how each entry below is paired with its result.
- CN(C)C(=O)C(CCN1CCC(O)(c2ccc(Cl)cc2)CC1)(c1ccccc1)c1ccccc1.Cl [LOPERAMIDE HYDROCHLORIDE]: 65%
- COc1ccc(-c2ccc3c(N4CCOCC4)nc(N4C[C@@H](C)O[C@@H](C)C4)nc3n2)cc1CO: 30%
- O=C(Nc1ccc(-n2nc(-c3cccnc3)cc2C(F)(F)F)cn1)c1ccc(-c2ccccc2)c(F)c1: 44%
- Cc1ccc(C(=O)Nc2cccc(C(F)(F)F)c2)cc1Nc1nc(-c2cccnc2)nc2c1cnn2C: 14%
- C=C1/C(=C\C=C2/CCC[C@]3(C)[C@@H]([C@H](C)/C=C/[C@H](C)C(C)C)CC[C@@H]23)C[C@@H](O)C[C@@H]1O: 9%
- Cl.O=c1c2cccn2c2ccccc2n1CCCN1CCC(c2ccc(Cl)cc2)CC1: 30%
- CNC(=O)c1ccc(Nc2nc(OC3CCCC3)c3c(-c4ccc5nc(C)oc5c4)c[nH]c3n2)c(OC)c1: 100%
- CCCS(=O)(=O)c1nc(NC2CC2)cc(-c2ccc3c(ccn3C3CC(C)(C)NC(C)(C)C3)c2)n1: 29%

Dear colleague, could you please provide Population Tubulin-Different-Phenotype (%) for the molecules listed below?
1. COc1cc(N2CCN(C)CC2)ccc1Nc1ncc2c(n1)N(C)c1ccccc1C(=O)N2C
2. CCOc1cc(C(=O)N2CCC(N3CCN(C)CC3)CC2)ccc1Nc1ncc2c(n1)N(C1CCCC1)c1ccccc1C(=O)N2C
3. Cn1nc(C(F)(F)F)cc1-c1cnc(N2CCc3cc(S(=O)(=O)Nc4c(F)cc(Cl)cc4F)cc(N4CCCC4=O)c32)nc1

result:
1. 15%
2. 48%
3. 15%

query: Provide value of Population Tubulin-Different-Phenotype (%) for this record tested with U2OS: CCN1CCN(Cc2ccc(Nc3ncc(F)c(-c4cc(F)c5nc(C)n(C(C)C)c5c4)n3)nc2)CC1.CS(=O)(=O)O
result: 97%
